protocol description: Compartmental nutrikinetic modeling of the CNA plasma concentration-time profile (one-compartment, first-order elimination)
Assay type: in vivo
measurement parameters: male, human, oral, 6 g mixed spices, D1C, Figure 2C, read-out: Tmax (one-compartment model)
recorded endpoint: Tmax
Write the quantity with the unit trailing the number.

Can you share its Tmax? I mean this molecule: O=C(O)/C=C/c1ccccc1 [Cinnamic acid (CNA), cinnamic acid]
56.4 min

====

protocol description: Compartmental nutrikinetic modeling of the CNA plasma concentration-time profile (one-compartment, first-order elimination)
Format: in vivo
measurement parameters: male, human, oral, 0 g mixed spices, D0C, Figure 2C, read-out: Tmax (one-compartment model)
recorded endpoint: Tmax (h)
# value in h; strip the unit string

Can you share its Tmax? I mean this compound: O=C(O)/C=C/c1ccccc1 [Cinnamic acid (CNA), cinnamic acid]
3.42
